Molecular target: human CGRP receptor (Homo sapiens, UniProt O60894+Q16602)
Construct: SK-N-MC membranes (˜20 μg protein) are incubated for 180 minutes at ambient temperature; endogenous in cells
Sequence (Q16602 23-461): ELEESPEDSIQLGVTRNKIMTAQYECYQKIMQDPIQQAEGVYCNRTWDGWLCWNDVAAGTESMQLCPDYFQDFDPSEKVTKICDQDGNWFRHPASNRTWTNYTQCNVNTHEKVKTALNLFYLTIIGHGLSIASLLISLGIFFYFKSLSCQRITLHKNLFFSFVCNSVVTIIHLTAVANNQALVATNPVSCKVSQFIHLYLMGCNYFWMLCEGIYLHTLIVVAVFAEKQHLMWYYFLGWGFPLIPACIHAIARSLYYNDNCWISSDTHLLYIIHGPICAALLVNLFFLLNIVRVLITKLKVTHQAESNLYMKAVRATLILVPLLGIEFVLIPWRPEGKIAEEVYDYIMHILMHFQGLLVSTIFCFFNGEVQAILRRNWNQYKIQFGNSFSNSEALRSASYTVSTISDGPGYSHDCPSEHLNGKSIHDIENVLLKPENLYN
Sequence (O60894 27-148): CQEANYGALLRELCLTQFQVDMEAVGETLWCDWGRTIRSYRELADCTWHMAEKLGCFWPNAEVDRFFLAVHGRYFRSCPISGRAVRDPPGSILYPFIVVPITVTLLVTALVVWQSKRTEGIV
Test: Binding studies with SK-N-MC cells (expressing the human CGRP receptor)
Settings: SK-N-MC membranes, 125I-iodotyrosyl-CGRP displacement
Procedure: A. Binding Studies with SK-N-MC Cells (Expressing the Human CGRP Receptor) SK-N-MC membranes (˜20 μg protein) are incubated for 180 minutes at ambient temperature with 50 pM ^125I-iodotyrosyl-Calcitonin-Gene-Related Peptide and increasing concentrations of the test substances in a total volume of […] (assay buffer: 10 mM tris, 50 mM NaCl, 5 mM MgCl2, 1 mM EDTA, pH=7.4). […] The protein-bound radioactivity is measured using a gamma counter. […]
QUANTITY KIND: Ki (nM)

(I) O=C1Nc2ccccc2C2(CCN(c3cc(C(=O)N4CCc5ccccc54)ncn3)CC2)O1
(II) CN1C(=O)NC(=O)C12Cc1ccc(Nc3cc(C(=O)N4CCc5ccccc54)ncn3)cc1C2 (stereo not shown)
Between I and II , which one has the lower reported Ki value? Use the label to indicate which entry you chose.
II

(A) O=C(c1cc(Nc2ccc3c(c2)CC2(C3)C(=O)Nc3ncccc32)ncn1)N(CC(F)(F)F)c1ccccc1 (stereo not shown)
(B) O=C(c1cc(Nc2ccc3c(c2)CC2(C3)C(=O)Nc3ncccc32)ncn1)N1CCc2ccccc21 (stereo not shown)
Endpoint returns whichever of A and B has the numerically higher Ki. Respond with the label that goes with your answer.
A
(A: 120 nM, B: 15 nM)
